Where these numbers come from: patent US5691340A

targetSystem: σ receptor
protocolDetails: In vitro binding to σ receptors ([3H]-DTG or [3H]-3-PPP)
measurementParameters: [3H]-DTG
measuredParameter: pIC50
The meaning of pIC50 here: minus log10 of the concentration in molar units.

Some entries whose results are on file:
{"compound": "c1ccc(CN2CCN(CC3Cc4ccccc4O3)CC2)cc1 (stereo not drawn)", "pIC50": 8.15}
{"compound": "COc1ccc2c(CN3CCN(Cc4ccccc4)CC3)cc(=O)oc2c1", "pIC50": 8.89}

Shifting focus to the compound that follows.
QUERY: Item under review: Fc1ccc2c(c1)CC(CN1CCN(Cc3ccccc3)CC1)O2 (stereo not drawn) . Reported pIC50?
RESULT: 8.04
